Biological target: T1, recombinant mouse PCSK9 (mouse, UniProt Q80W65 35-694)
T1 construct: also called mPCSK9; murine PCSK9
T1 sequence (Q80W65 other isoform, or with tags, fused parts or gaps limits assumed): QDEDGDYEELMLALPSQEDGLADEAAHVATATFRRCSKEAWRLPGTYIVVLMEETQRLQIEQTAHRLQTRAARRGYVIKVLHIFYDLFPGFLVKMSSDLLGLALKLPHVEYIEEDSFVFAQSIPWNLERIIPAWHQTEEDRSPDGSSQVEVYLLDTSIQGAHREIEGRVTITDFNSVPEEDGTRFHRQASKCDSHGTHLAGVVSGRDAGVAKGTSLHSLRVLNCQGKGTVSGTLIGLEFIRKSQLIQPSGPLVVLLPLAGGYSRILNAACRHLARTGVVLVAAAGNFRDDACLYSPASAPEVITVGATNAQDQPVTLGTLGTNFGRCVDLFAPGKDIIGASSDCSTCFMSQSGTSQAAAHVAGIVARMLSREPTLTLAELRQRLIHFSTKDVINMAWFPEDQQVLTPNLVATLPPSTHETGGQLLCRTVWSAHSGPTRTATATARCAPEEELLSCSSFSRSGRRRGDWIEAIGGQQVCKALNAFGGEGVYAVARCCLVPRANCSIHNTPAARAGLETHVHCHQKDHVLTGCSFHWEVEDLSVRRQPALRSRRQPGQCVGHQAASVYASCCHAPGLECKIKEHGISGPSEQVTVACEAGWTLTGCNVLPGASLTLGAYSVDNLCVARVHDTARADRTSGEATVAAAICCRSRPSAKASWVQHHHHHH
Assay: ELISA, blocking: biotinylated mouse PCSK9 (0.8nM) binding to immobilized human LDLR extracellular domain, pH7.5
Reported IC50 (read off the curve) values for the following binders.

anti-PCSK9 antagonist monoclonal antibody 6F6 (antibody, V domains shown, Murine full-length IgG from a hybridoma; also called 6F6.G10.3 (subclone); ATCC PTA-8984) VH: EVQLQQSGPELVKPGASVKISCKASGYTFTDYYMNWVKQSHGKSLEWIGDINPNNGGTSYNQKFKGKATLTVDKSSSTAYMELRSLTSEDSAVYYCAGGGIYYRYDRNYFDYWGQGTTLTVSS VL: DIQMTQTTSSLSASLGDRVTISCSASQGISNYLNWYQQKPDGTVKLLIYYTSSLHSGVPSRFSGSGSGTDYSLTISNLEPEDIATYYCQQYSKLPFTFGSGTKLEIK : ~10 nM
anti-PCSK9 antagonist monoclonal antibody 4A5 (antibody, V domains shown, Murine full-length IgG from a hybridoma; also called 4A5.G3 (subclone); ATCC PTA-8985) VH: EVQLQQSGPELVKPGASVKISCKASGYTFTDYYMNWVKQSHGKSLEWIGDINPNNGGTTYNQKFKGKATLTVDKSYSTAYMELRSLTSEDSAVYYCARWLLFAYWGQGTLVTVSA VL: DIVMTQSQKFMSTSVGDRVSVTCKASQNVGTNVAWYQQKPGQSPKALIYSASYRYSGVPDRFTGSGSGTDFTLTISNVLSEDLAEYFCQQFYSYPYTFGGGTKLEIKR : ~3 nM

Query: Could you tell me which IC50 (read off the curve) is on file for anti-PCSK9 antagonist monoclonal antibody 5A10 (antibody, V domains shown, Murine full-length IgG from a hybridoma; Mouse precursor of L1L3; also called 5A10.B8 (subclone)) VH: QVQLQQPGAELVKPGASVKLSCKASGYTFTSYWMHWVKQRPGQGLEWIGEINPSNGRTNYNEKFKSKATLTVDKSSSTAYMQLSSLTSEDSAVYYCARERPLYAMDYWGQGTSVTVSS VL: DIVMTQSHKFMSTSVGDRVSITCKASQDVSTAVAWYQQKPGQSPKLLIYSASYRYTGVPDRFTGSGSGTDFTFTISSVQAEDLAVYYCQQRYSTPRTFGGGTKLEIKR ?
Reply: ~3 nM
